Test system: Mycobacterium tuberculosis
assay_remarks: Antimycobacterial activity against Mycobacterium tuberculosis H37Rv ATCC 27294 after 7 days by REMA assay
Format: functional
condition_label: H37Rv ATCC 27294, 168 h
metric: log10 of MIC (log10 of the value in µg/mL)
The common logarithm of MIC in µg/mL is what is listed.

State the recorded log10 of MIC for this entry: `CC/C=C\C/C=C\C/C=C\CCCCCCCC(=O)NNC(=O)c1ccncc1`
-1.22

Reported log10 of MIC for NNC(=O)c1ccncc1 [ISONIAZID] : what is it?
-1.22

Item `CCCCCCCCCCCCCCCC(=O)NNC(=O)c1ccncc1` has what recorded log10 of MIC?
-1.82

Which log10 of MIC value belongs to CO[C@H]1/C=C/O[C@@]2(C)Oc3c(C)c(O)c4c(O)c(c(/C=N/N5CCN(C)CC5)c(O)c4c3C2=O)NC(=O)/C(C)=C\C=C\[C@H](C)[C@H](O)[C@@H](C)[C@@H](O)[C@@H](C)[C@H](OC(C)=O)[C@@H]1C [RIFAMPIN] ?
-1.52

Which log10 of MIC is listed for `CCCCCCCC/C=C\CCCCCCCC(=O)NNC(=O)c1ccncc1` ?
-1.82

If you can, please state the reported log10 of MIC value of CCCCCCCC/C=C\CCCCCCCC(=O)NN [OLEOHYDRAZIDE] .
1.70

New cases:
Which measured log10 of MIC value corresponds to `CCCCCCCC/C=C/CCCCCCCC(=O)NNC(=O)c1ccncc1` ?
-1.52

Any idea what log10 of MIC was measured for `CCCCCC[C@@H](O)C/C=C\CCCCCCCC(=O)NNC(=O)c1ccncc1` ?
-1.52

---

Reported MIC values are given for each entry in this list.
System: Mycobacterium tuberculosis
assay_remarks: Antimycobacterial activity against Mycobacterium tuberculosis H37Rv ATCC 27294 after 7 days by REMA assay
Assay type: functional
condition_label: H37Rv ATCC 27294, 168 h
Response body: numeric value in µg/mL, unit text excluded.

Some entries whose results are on file:
Name the reported MIC value associated with the compound `CCCCCCCCCCCCCCCCCC(=O)NNC(=O)c1ccncc1`
0.03

What does the data say about its MIC? Entry: `CCCCCCCC/C=C\CCCCCCCC(=O)O`
100

More entries:
For the compound shown here, `CCCCC/C=C\C/C=C\CCCCCCCC(=O)NNC(=O)c1ccncc1` , give the reported MIC.
0.125

Reference for the values: ChEMBL document CHEMBL2440109
